biological target: human prostanoid EP1 receptor (Homo sapiens); construct: expressed in transfected cells; assay: FLIPR Ca2+ signaling antagonist assay, EP1 receptor stable cell line; format: cell-based; settings: human recombinant EP1 in HEK-293 EBNA cells; standard agonist PGE2; NA = no antagonism or Kb>=10,000 nM
Sequence (P34995 whole entry): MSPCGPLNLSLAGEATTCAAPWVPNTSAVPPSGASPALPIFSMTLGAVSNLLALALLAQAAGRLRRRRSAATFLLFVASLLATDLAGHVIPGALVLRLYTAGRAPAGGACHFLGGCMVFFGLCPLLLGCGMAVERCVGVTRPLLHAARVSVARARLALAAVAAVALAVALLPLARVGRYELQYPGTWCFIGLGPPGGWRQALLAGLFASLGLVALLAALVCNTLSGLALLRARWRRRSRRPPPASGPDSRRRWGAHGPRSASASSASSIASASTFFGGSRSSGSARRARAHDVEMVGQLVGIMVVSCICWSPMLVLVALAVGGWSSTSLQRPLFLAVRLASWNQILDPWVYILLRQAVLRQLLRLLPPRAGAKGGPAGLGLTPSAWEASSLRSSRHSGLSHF
# maps each entry to its Kb
Just the number in nM, nothing appended.

[
  {
    "moleculeSmiles": "CC(C)Cn1ncc2cc(Br)cc(Cn3ncc4cc(C(=O)O)ccc43)c21",
    "Kb [nM]": 2300
  }
]

--- query ---
Using the record for CC(C)Cn1ncc2cc(OC(F)(F)F)cc(Cn3ncc4cc(C(=O)O)ccc43)c21 , report its Kb.
800
